Form field: IC50 at 3 days (one value per entry).
# ASSAY SUMMARY: Cytotoxicity (Cell Counting Kit-8, 3 days)
# Assay type: cell-based, bovine
# PARTICULARS: bovine, Madin–Darby bovine kidney (MDBK) cells, 37 °C, mean ± SD of triplicate
Report the figure in µM without appending any unit label.

Worked examples follow.
[[record]]
molecule = "CCCCCCCCN1C(=O)CN(/N=C/c2ccc([N+](=O)[O-])o2)C1=O [Analog 8]"
unit_abbreviation = "µM"
readout_value = 84.7

[[record]]
molecule = "CCCCCCCCCCN1C(=O)CN(/N=C/c2ccc([N+](=O)[O-])o2)C1=O [Analog 10]"
unit_abbreviation = "µM"
readout_value = 110

[[record]]
molecule = "CCCCCCN1C(=O)CN(/N=C/c2ccc([N+](=O)[O-])o2)C1=O [Analog 6]"
unit_abbreviation = "µM"
readout_value = 25.2

[[record]]
molecule = "CCN1C(=O)CN(/N=C/c2ccc([N+](=O)[O-])o2)C1=O [Analog 2]"
unit_abbreviation = "µM"
readout_value = 44.8

[[record]]
molecule = "O=C1CN(/N=C/c2ccc([N+](=O)[O-])o2)C(=O)N1Cc1ccc(Br)cc1 [Analog 19]"
unit_abbreviation = "µM"
readout_value = 28.7


input: Please look at this molecule and report its IC50 at 3 days: CCCN1C(=O)CN(/N=C/c2ccc([N+](=O)[O-])o2)C1=O [Analog 3]
output: 39.3

input: Please look at this molecule and report its IC50 at 3 days: CCCCCN1C(=O)CN(/N=C/c2ccc([N+](=O)[O-])o2)C1=O [Analog 5]
output: 39.1

----------
# Tested on: six species/strains of animal and human trypanosomes
# ASSAY SUMMARY: In vitro trypanocidal activity, summary over all strains
# Type: cell-based
# PARTICULARS: over the six trypanosome species/strains
pIC50: −log10 of the molar value.
Form field: pIC50 (one value per entry).

[[record]]
test_smiles = "CCCCCCCCCCCN1C(=O)CN(/N=C/c2ccc([N+](=O)[O-])o2)C1=O"
measured_on = "six species/strains of animal and human trypanosomes"
value_kind = "pIC50"
readout_value = "> 6.47"


Note: attention shifts to another entry.
input: Name the recorded pIC50 of "CCCCCCCCCCCCN1C(=O)CN(/N=C/c2ccc([N+](=O)[O-])o2)C1=O" , assay system six species/strains of animal and human trypanosomes.
output: > 6.47

----------
# Tested on: T. b. rhodesiense Chirundu
# ASSAY SUMMARY: In vitro trypanocidal activity (CellTiter-Glo, 3 days)
# Format: cell-based
# PARTICULARS: Trypanosoma brucei, 72 h, bloodstream forms, 37 °C, mean ± SD of triplicate, read-out: Trypanocidal Activity IC50 ± SD, Tbr Chirundu
VALUE KIND: IC50 (nM)
Report the figure in nM without appending any unit label.

Worked examples follow.
[[record]]
compound = "O=C1CN(/N=C/c2ccc([N+](=O)[O-])o2)C(=O)N1Cc1ccc(C(F)(F)F)cc1"
unit_abbreviation = "nM"
readout_value = 20

[[record]]
compound = "O=C1CN(/N=C/c2ccc([N+](=O)[O-])o2)C(=O)N1Cc1ccc([N+](=O)[O-])cc1"
unit_abbreviation = "nM"
readout_value = 40

[[record]]
compound = "CC1CS(=O)(=O)CCN1/N=C/c1ccc([N+](=O)[O-])o1 (stereo not shown) [Nifurtimox, reference compound]"
unit_abbreviation = "nM"
readout_value = 1460


Note: attention shifts to another entry.
input: Please look at this compound and report its IC50: "COc1ccc(CN2C(=O)CN(/N=C/c3ccc([N+](=O)[O-])o3)C2=O)cc1"
output: 330

----------
# Test system: T. congolense IL3000
# ASSAY SUMMARY: In vitro trypanocidal activity (CellTiter-Glo, 3 days)
# Format: cell-based
# PARTICULARS: bloodstream forms, 33 °C, mean ± SD of triplicate, read-out: Trypanocidal Activity IC50 ± SD, Tc IL3000
VALUE KIND: pIC50
Scale for pIC50: -log10 of concentration given in mol/L; no unit attached.

input: Name the recorded pIC50 of "CN1C(=O)CN(/N=C/c2ccc([N+](=O)[O-])o2)C1=O" , assay system T. congolense IL3000.
output: 6.72

----------
# Tested on: T. b. rhodesiense IL1501
# ASSAY SUMMARY: In vitro trypanocidal activity (CellTiter-Glo, 3 days)
# Format: cell-based
# PARTICULARS: Trypanosoma brucei, 72 h, bloodstream forms, 37 °C, mean ± SD of triplicate, read-out: Trypanocidal Activity IC50 ± SD, Tbr IL1501
// map IC50 onto a label; ranges class 0 (below 600 nM), class 1 (600 nM to below 6000 nM), class 2 (6000 nM or more)

# example entries with known answers
[[record]]
compound = "CCCCCCCCCCCCN1C(=O)CN(/N=C/c2ccc([N+](=O)[O-])o2)C1=O"
label = "class 0"

[[record]]
compound = "CCCN1C(=O)CN(/N=C/c2ccc([N+](=O)[O-])o2)C1=O"
label = "class 2"

[[record]]
compound = "COc1ccc(CN2C(=O)CN(/N=C/c3ccc([N+](=O)[O-])o3)C2=O)cc1"
label = "class 2"

[[record]]
compound = "CCCCCCCCCCCN1C(=O)CN(/N=C/c2ccc([N+](=O)[O-])o2)C1=O"
label = "class 0"


input: Please indicate the class for "O=C1CN(/N=C/c2ccc([N+](=O)[O-])o2)C(=O)N1Cc1ccc([N+](=O)[O-])cc1" based on its IC50.
output: class 0

input: Please indicate the class for "CCCCCCCCN1C(=O)CN(/N=C/c2ccc([N+](=O)[O-])o2)C1=O" based on its IC50.
output: class 1

input: Please indicate the class for "CCCCN1C(=O)CN(/N=C/c2ccc([N+](=O)[O-])o2)C1=O" based on its IC50.
output: class 2

input: Please indicate the class for Cc1ccc(C(=O)Nc2ccc(S(=O)(=O)O)c3cc(S(=O)(=O)O)cc(S(=O)(=O)O)c23)cc1NC(=O)c1cccc(NC(=O)Nc2cccc(C(=O)Nc3cc(C(=O)Nc4ccc(S(=O)(=O)O)c5cc(S(=O)(=O)O)cc(S(=O)(=O)O)c45)ccc3C)c2)c1 [Suramin, reference compound] based on its IC50.
output: class 0

input: Please indicate the class for N=C(N)c1ccc(OCCCCCOc2ccc(C(=N)N)cc2)cc1 [Pentamidine, reference compound] based on its IC50.
output: class 0

input: Please indicate the class for "CCCCCN1C(=O)CN(/N=C/c2ccc([N+](=O)[O-])o2)C1=O" based on its IC50.
output: class 1

input: Please indicate the class for "CCCCCCN1C(=O)CN(/N=C/c2ccc([N+](=O)[O-])o2)C1=O" based on its IC50.
output: class 1

input: Please indicate the class for "O=C1CN(/N=C/c2ccc([N+](=O)[O-])o2)C(=O)N1Cc1ccc(C(F)(F)F)cc1" based on its IC50.
output: class 1

----------
# System: Madin–Darby bovine kidney cells
# ASSAY SUMMARY: Cytotoxicity (Cell Counting Kit-8, 3 days)
# Type: cell-based
# PARTICULARS: MDBK cells, 37 °C, mean ± SD of triplicate
VALUE KIND: IC50

input: Please look at this molecule and report its IC50: "CCCCCCCCCCCN1C(=O)CN(/N=C/c2ccc([N+](=O)[O-])o2)C1=O"
output: > 255 µM

----------
# ASSAY SUMMARY: Cytotoxicity (Cell Counting Kit-8, 3 days)
# Format: cell-based, bovine
# PARTICULARS: bovine, Madin–Darby bovine kidney (MDBK) cells, 37 °C, mean ± SD of triplicate
# Procedure: Additionally, Madin–Darby bovine kidney cells were cultivated (density, 1 × 10^4 cells/mL) in a 96-well cell culture plate (Thermo Fisher Scientific) with the analogs, at seven different concentrations for 3 days at 37 °C. Next, 10 µl of the Cell Counting Kit-8 solution (Dojindo, Kumamoto, Japan) was added into each well […] 4 h of incubation. Absorbance was measured at 450 nm using a GloMax®-Multi+Detection System plate reader. […]
VALUE KIND: IC50 at 3 days (µM)
Report the figure in µM without appending any unit label.

Worked examples follow.
[[record]]
compound = "CCCCN1C(=O)CN(/N=C/c2ccc([N+](=O)[O-])o2)C1=O [Analog 4]"
value_kind = "IC50 at 3 days"
unit_abbreviation = "µM"
readout_value = 35.8

[[record]]
compound = "CN1C(=O)CN(/N=C/c2ccc([N+](=O)[O-])o2)C1=O [Analog 1]"
value_kind = "IC50 at 3 days"
unit_abbreviation = "µM"
readout_value = 65.2

[[record]]
compound = "COc1ccc(CN2C(=O)CN(/N=C/c3ccc([N+](=O)[O-])o3)C2=O)cc1 [Analog 18]"
value_kind = "IC50 at 3 days"
unit_abbreviation = "µM"
readout_value = 80.1


Note: attention shifts to another entry.
input: Please look at this compound and report its IC50 at 3 days: CCCCCCCCCN1C(=O)CN(/N=C/c2ccc([N+](=O)[O-])o2)C1=O [Analog 9]
output: 251

Reference for the values: paper PMC8199755
